biological target: T1, AFP158/HLA-A*02:01 complex (human); test: SPR; vs AS170036 VL1VH1;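 also: crude scFv captured on sensor chip, peptide–HLA complex flowed over at several concentrations, KD estimated from association and dissociation kinetic rates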
T1 construct: biotinylated on the BSP by BirA for ELISA and panning; also called biotinylated AFP158/HLA-A*02:01 complex; Bio-AFP158
The threshold is inclusive: Affinity increase of exactly 0.7 fold counts as Fulfilled; values below receive Not fulfilled.

>>> assigned_label("AS170036 VL1VH1 HP110E (scFv) scFv: QSALTQPRSVSGSPGQSVTISCAGTSSDVGSENYVSWYQQHPGKAPKLMIYQVNKRASGVPDRFSGSKSGNTASLTISGLQAEDEADYYCASYRSSDHNIVFGGGTKLTVLGGGGSGGGGSGGGGSEVQLVESGGGLVQPGGSLRLSCAASGFTFSSYAMSWVRQAPGKGLEWVSTINSGTGSPYYADSVKGRFTISRDNSKNTLYLQMNSLRAEDTAVYYCAKNFFDGSWFLGPEAMDYWGQGTLVTVSSHHHHHH")
"Fulfilled"
>>> assigned_label("AS170036 VL1VH1 HF101Y (scFv) scFv: QSALTQPRSVSGSPGQSVTISCAGTSSDVGSENYVSWYQQHPGKAPKLMIYQVNKRASGVPDRFSGSKSGNTASLTISGLQAEDEADYYCASYRSSDHNIVFGGGTKLTVLGGGGSGGGGSGGGGSEVQLVESGGGLVQPGGSLRLSCAASGFTFSSYAMSWVRQAPGKGLEWVSTINSGTGSPYYADSVKGRFTISRDNSKNTLYLQMNSLRAEDTAVYYCAKNFYDGSWFLGPPAMDYWGQGTLVTVSSHHHHHH")
"Fulfilled"
>>> assigned_label("AS170036 VL1VH1 HP110S (scFv) scFv: QSALTQPRSVSGSPGQSVTISCAGTSSDVGSENYVSWYQQHPGKAPKLMIYQVNKRASGVPDRFSGSKSGNTASLTISGLQAEDEADYYCASYRSSDHNIVFGGGTKLTVLGGGGSGGGGSGGGGSEVQLVESGGGLVQPGGSLRLSCAASGFTFSSYAMSWVRQAPGKGLEWVSTINSGTGSPYYADSVKGRFTISRDNSKNTLYLQMNSLRAEDTAVYYCAKNFFDGSWFLGPSAMDYWGQGTLVTVSSHHHHHH")
"Fulfilled"

Now for a further binder.
Query string: Quick check, Affinity increase >= 0.7 fold? AS170036 VL1VH1 HD102V (scFv) scFv: QSALTQPRSVSGSPGQSVTISCAGTSSDVGSENYVSWYQQHPGKAPKLMIYQVNKRASGVPDRFSGSKSGNTASLTISGLQAEDEADYYCASYRSSDHNIVFGGGTKLTVLGGGGSGGGGSGGGGSEVQLVESGGGLVQPGGSLRLSCAASGFTFSSYAMSWVRQAPGKGLEWVSTINSGTGSPYYADSVKGRFTISRDNSKNTLYLQMNSLRAEDTAVYYCAKNFFVGSWFLGPPAMDYWGQGTLVTVSSHHHHHH
Result string: Not fulfilled
